experiment: Stability of compound at 60 degC and ambient dry condition assessed parent compound remaining measured 2 weeks using crystalline form of sample by chromatographic method; format: physicochemical; conditions: solid sample, read-out: Stabilty
measured-property: remaining at 336 h (%)
Give bare numbers, in %.

## Task Please report the recorded remaining at 336 h for C[C@@H]1Cc2c(ccc3[nH]ncc23)[C@@H](c2ccc(NC3CN(CCCF)C3)cn2)N1CC(F)(F)F [CAMIZESTRANT] .
## Result 99.4

###

Please go through the items and note down their Activity.
target: Estrogen receptor (Homo sapiens); assay: Induction of ERalpha degradation in human CAMA1 cells assessed as decrease in ER-alpha level at 0.1 uM by Western blot analysis relative to fulvestrant; type: cell-based; parameters: scale not given: the % may be the effect or the level left; conditions: CAMA-1
In your response, the unit should come after the numeric value.

# structure-smiles, experimental-target, Activity
measured = [
    ("COc1cc(NC2CN(CCCF)C2)ccc1[C@@H]1c2ccc3[nH]ncc3c2C[C@@H](C)N1CC(F)(F)F", "Estrogen receptor (Homo sapiens)", "110%"),
    ("C[C@@H]1Cc2c(ccc3[nH]ncc23)[C@@H](c2ccc(N(C)C3CN(CCCF)C3)cn2)N1CC(F)(F)F", "Estrogen receptor (Homo sapiens)", "82%"),
    ("COc1cc(OCCN2CC(CF)C2)ccc1[C@@H]1c2ccc3[nH]ncc3c2C[C@@H](C)N1CC1(F)COC1", "Estrogen receptor (Homo sapiens)", "75%"),
    ("C[C@@H]1Cc2c(ccc3[nH]ncc23)[C@@H](c2ccc(OCCN3CC(CF)C3)cn2)N1CC1(F)CC1", "Estrogen receptor (Homo sapiens)", "87%"),
    ("COc1cc(OC2CN(CCCF)C2)ccc1[C@@H]1c2ccc3[nH]ncc3c2C[C@@H](C)N1CC1(F)CC1", "Estrogen receptor (Homo sapiens)", "90%"),
]

Dear colleague, could you send me Activity for each of the items below? Thanks.
1. C[C@@H]1Cc2c(ccc3[nH]ncc23)[C@@H](c2ccc(OCCN3CC(CF)C3)cn2)N1CC(F)F
2. C[C@@H]1Cc2c(ccc3[nH]ccc23)[C@@H](c2ccc(NC3CN(CCCF)C3)cn2)N1CC(F)(F)F
3. COc1cc(OCCN2CC(CF)C2)ccc1[C@@H]1c2ccc3[nH]ncc3c2C[C@@H](C)N1CC(C)(C)F
4. COc1cc(OCCN2CC(CF)C2)ccc1[C@@H]1c2ccc3[nH]ncc3c2C[C@@H](C)N1CC1(F)CC1

## Result
1: 88%; 2: 85%; 3: 74%; 4: 88%
